target: TRKB (Mus musculus); assay: Cell-free ligand binding assay on immobilised TRKB from HEK293T lysates; design: wild-type GFP-tagged full length TRKB or the GFP-tagged Y433F TRKB mutant; host or cells: HEK293T; conditions: biotinylated FLX 1 μM
Readout name: displacement of biotinylated FLX from TRKB

1) N[C@@]1(c2ccccc2Cl)CCC[C@@H](O)C1=O [R,R-HNK, 2R,6R-hydroxynorketamine] : readily displaced
2) COc1ccc(C(CN(C)C)C2(O)CCCCC2)cc1 (stereo not drawn) : readily displaced
3) CNC1(c2ccccc2Cl)CCCCC1=O (stereo not drawn) : readily displaced

###

target: TRKB (Mus musculus, UniProt P15209); test: Cell-free ligand binding assay on immobilised TRKB from HEK293T lysates; parameters: wild-type GFP-tagged full length TRKB or the GFP-tagged Y433F TRKB mutant; host or cells: HEK293T; settings: biotinylated R,R-HNK (Figure 2E)
Sequence (P15209 32-821): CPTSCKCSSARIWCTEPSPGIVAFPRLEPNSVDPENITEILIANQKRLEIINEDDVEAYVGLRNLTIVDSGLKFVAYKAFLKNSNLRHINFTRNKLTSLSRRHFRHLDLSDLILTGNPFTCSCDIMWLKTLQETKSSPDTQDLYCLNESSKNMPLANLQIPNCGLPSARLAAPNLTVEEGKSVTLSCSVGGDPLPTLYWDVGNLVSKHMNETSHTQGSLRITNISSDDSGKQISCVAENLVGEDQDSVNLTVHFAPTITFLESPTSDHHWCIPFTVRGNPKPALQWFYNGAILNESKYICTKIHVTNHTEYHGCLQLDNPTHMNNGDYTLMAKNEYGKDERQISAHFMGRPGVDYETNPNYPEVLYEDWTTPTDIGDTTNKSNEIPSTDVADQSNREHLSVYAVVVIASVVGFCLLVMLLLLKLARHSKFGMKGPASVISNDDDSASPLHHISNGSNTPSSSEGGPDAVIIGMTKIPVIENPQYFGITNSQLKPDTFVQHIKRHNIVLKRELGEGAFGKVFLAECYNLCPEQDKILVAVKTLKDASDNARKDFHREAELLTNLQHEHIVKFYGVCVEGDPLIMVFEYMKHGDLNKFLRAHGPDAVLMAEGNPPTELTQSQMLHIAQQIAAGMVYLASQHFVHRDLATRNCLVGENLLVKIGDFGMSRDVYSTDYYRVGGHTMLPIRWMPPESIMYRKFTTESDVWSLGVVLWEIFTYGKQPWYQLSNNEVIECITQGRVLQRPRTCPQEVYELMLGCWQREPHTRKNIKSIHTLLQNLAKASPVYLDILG
Readout name: pKd
Please express pKd as -log10 of the molar concentration.

In one line, give reported pKd of the entry N[C@@]1(c2ccccc2Cl)CCC[C@@H](O)C1=O [R,R-HNK, 2R,6R-hydroxynorketamine] .
5.74

###

target: TRKB (Mus musculus, UniProt P15209); test: Cell-free ligand binding assay on immobilised TRKB from HEK293T lysates; design: wild-type GFP-tagged full length TRKB or the GFP-tagged Y433F TRKB mutant; host or cells: HEK293T
// returns not satisfied unless Ki is strictly below 2000 nM, in which case satisfied

1. O=C(NCCN1CCOCC1)c1ccc(Cl)cc1 [moclobemide] : satisfied
2. CN(C)CCCN1c2ccccc2CCc2ccccc21 : satisfied
3. COc1ccc(C(CN(C)C)C2(O)CCCCC2)cc1 (centres unmarked) : not satisfied
4. CN[C@]1(c2ccccc2Cl)CCCCC1=O : not satisfied

Kindly consider the entry below.
A record lists CNC1(c2ccccc2Cl)CCCCC1=O (centres unmarked) . Is its Ki below 2000 nM?
not satisfied

###

biological target: GFP-TRKB (Mus musculus, UniProt P15209); construct: wild-type GFP-tagged full length TRKB or the GFP-tagged Y433F TRKB mutant; test: Microscale thermophoresis (MST) in lysates of GFP-TRKB expressing HEK293T cells; settings: CHOL 10–100 μM, 15 min, HEK293T cell lysates; read-out: affinity of direct interaction with GFP-TRKB (MST)
Sequence (P15209 32-821): as above
Readout name: Kd

In one line, give reported Kd of the entry CC(C)CCC[C@@H](C)[C@H]1CC[C@H]2[C@@H]3CC=C4C[C@@H](O)CC[C@]4(C)[C@H]3CC[C@]12C [CHOL, cholesterol] .
~20 µM

###

target: UniProt:P15209; test: Cell-free ligand binding assay on immobilised TRKB from HEK293T lysates; set-up: wild-type GFP-tagged full length TRKB or the GFP-tagged Y433F TRKB mutant; host or cells: HEK293T; details: read-out: Kd of biotinylated FLX binding to immunoprecipitated TRKB; biotinylated ligand 0-100 μM
Readout name: pKd
Please express pKd as -log10 of the molar concentration.

In one line, give reported pKd of the entry CN(CCC(Oc1ccc(C(F)(F)F)cc1)c1ccccc1)C(=O)CCOCCOCCOCCOCCNC(=O)CCCC[C@@H]1SC[C@@H]2NC(=O)N[C@@H]21 (stereo partly shown) .
5.62

###

biological target: TRKB (Mus musculus, UniProt P15209); experiment: Cell-free ligand binding assay on immobilised TRKB from HEK293T lysates; set-up: wild-type GFP-tagged full length TRKB or the GFP-tagged Y433F TRKB mutant; host or cells: HEK293T; conditions: read-out: Ki for displacement of biotinylated FLX from TRKB; biotinylated FLX 1 μM
Readout name: Ki (nM)
Provide only the numeric value, understood in nM.

Find the measured Ki of N[C@@]1(c2ccccc2Cl)CCC[C@@H](O)C1=O [R,R-HNK, 2R,6R-hydroxynorketamine] with TRKB (Mus musculus, UniProt P15209) as test system.
2230

###

tested on: TRKB autophosphorylation (TRKB:pY); assay: TRKB:pY ELISA in cultured cortical cells; type: cell-based, rat; conditions: cholesterol 50 μM, drug 10 μM 15 min, BDNF 10 ng/ml 15 min
Readout name: rescue of BDNF-induced pTRKB response under high CHOL

1) O=c1[nH]c2ccccc2n1C1CCN(CCCC(c2ccc(F)cc2)c2ccc(F)cc2)CC1 [pimozide] : failed to rescue
2) OCCN1CCN(CCC=C2c3ccccc3Sc3ccc(C(F)(F)F)cc32)CC1 : failed to rescue
3) CN(C)CCCN1c2ccccc2Sc2ccc(Cl)cc21 : failed to rescue

Data provenance: paper PMC7938888
